Values compiled from paper PMC5554537.

cond: i.p. SN30000 186 mg/kg; liver, non-tumour-bearing mice
readout kind: Cmax

>>> recorded_result("[O-][n+]1nc(CCCN2CCOCC2)nc2cc3c(cc21)CCC3 [M14]")
"469 ± 27 µmol/kg"
>>> recorded_result("c1c2c(cc3nc(CCCN4CCOCC4)nnc13)CCC2 [M13]")
"178.7 ± 8.1 µmol/kg"
>>> recorded_result("O=C(O)CCc1nc2cc3c(cc2[n+]([O-])n1)CCC3 [M18]")
"53.5 ± 4.0 µmol/kg"
>>> recorded_result("[O-][n+]1nc(CCCN2CCOCC2)[n+]([O-])c2cc3c(cc21)CCC3 [SN30000]")
"164 ± 38 µmol/kg"

---

measurement notes: in vivo
cond: NIH-III nude, mouse, in vivo, 78 mg/kg
readout kind: clearance (mL/min/kg)

>>> recorded_result("[O-][n+]1nc(CCCN2CCOCC2)[n+]([O-])c2cc3c(cc21)CCC3")
84

---

measurement notes: in vivo
cond: NIH-III nude, mouse, plasma, iv, 18.6 mg/kg
readout kind: half-life (min)

>>> recorded_result("c1c2c(cc3nc(CCCN4CCOCC4)nnc13)CCC2")
47.1

---

List of Central compartment volume V1 values.
measurement notes: Compartmental plasma PK model
Format: in vivo
cond: 1-Oxide and Nor-oxide values fixed
From the text: This model, shown schematically in Figure 9, is based on total (free + bound) plasma concentrations; the major metabolites (M14, M13, and M18) are explicit and clearance of SN30000 occurs only by reduction to M14. The i.p. bioavailability of SN30000 was modeled with an additional term for loss from the peritoneal compartment (kloss).
readout kind: Central compartment volume V1 (L/kg)

>>> recorded_result("[O-][n+]1nc(CCCN2CCOCC2)[n+]([O-])c2cc3c(cc21)CCC3 [SN30000]")
1.95
>>> recorded_result("OC[C@@H](O)[C@@H](O)[C@H](O)[C@H](O)CO [Mannitol, mannitol]")
0.39
>>> recorded_result("c1c2c(cc3nc(CCCN4CCOCC4)nnc13)CCC2 [M13]")
2.2
>>> recorded_result("[O-][n+]1nc(CCCN2CCOCC2)nc2cc3c(cc21)CCC3 [M14]")
2.2
>>> recorded_result("O=C(O)CCc1nc2cc3c(cc2[n+]([O-])n1)CCC3 [M18]")
0.43

---

measurement notes: in vivo
cond: NIH-III, mouse, in vivo, ip, 1.86 mg/kg
Catalogue of molecules with associated AUC
readout kind: AUC (µM·h)

>>> recorded_result("[O-][n+]1nc(CCCN2CCOCC2)nc2cc3c(cc21)CCC3")
0.02
>>> recorded_result("[O-][n+]1nc(CCCN2CCOCC2)[n+]([O-])c2cc3c(cc21)CCC3")
0.17
>>> recorded_result("O=C(O)CCc1nc2cc3c(cc2[n+]([O-])n1)CCC3")
1.06

---

measurement notes: in vivo
cond: female, NIH-III nude, mouse, plasma, ip, Cmax, administered 16hr after SN30000 0 mg/kg
readout kind: Cmax (µM)

>>> recorded_result("OC[C@@H](O)[C@@H](O)[C@H](O)[C@H](O)CO")
31.7

---

measurement notes: in vivo
cond: NIH-III nude, mouse, in vivo, iv, 78.3 mg/kg
readout kind: Vd (L/kg)

>>> recorded_result("[O-][n+]1nc(CCCN2CCOCC2)[n+]([O-])c2cc3c(cc21)CCC3")
2.24
